Source of measurements: the supplement of paper PMC11208160

METHOD: recombinant UMI read abundance after kanamycin selection (control-corrected) (log10(CPM+1)); higher = more efficient recombination; extreme values may be limits of the assay; sequences stand for … in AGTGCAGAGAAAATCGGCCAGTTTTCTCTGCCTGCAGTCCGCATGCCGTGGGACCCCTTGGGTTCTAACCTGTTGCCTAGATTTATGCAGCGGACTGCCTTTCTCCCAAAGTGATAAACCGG…AGGTTGGTTTCACT; site = the 11-nt donor
PROPERTY LABEL: recombinant UMI read abundance (log10)
One number for each entry.

Known recombinant UMI read abundance (log10) results, listed for orientation:
SEQUENCE INPUT: CTATCCTCATGGACCGGTTTTCCCGGTAATCCGTATTTGCT (site CTATCCTCTAG)
DATA VALUE: 3.09

SEQUENCE INPUT: CAGCCCACATGGACCGGTTTTCCCGGTAATCCGTATTTGAA (site CAGCCCACTTT)
DATA VALUE: 1.15

SEQUENCE INPUT: GCGGTGCCATGGACCGGTTTTCCCGGTAATCCGTATTTGGC (site GCGGTGCCTGC)
DATA VALUE: 0

SEQUENCE INPUT: TAGCTACCATGGACCGGTTTTCCCGGTAATCCGTATTTGAA (site TAGCTAACTTT)
DATA VALUE: 0.00682

SEQUENCE INPUT: TTGGTCACATGGACCGGTTTTCCCGGTAATCCGTATTTGAA (site TTGGTCACTTT)
DATA VALUE: 0.29

Moving on to the next sequence.
-- ask Fill in: recombinant UMI read abundance (log10) of CGGCGGCCATGGACCGGTTTTCCCGGTAATCCGTATTTGTC (site CGGCGGCCTGA) is ___
-- reply 0.965

###

METHOD: recombinant UMI read abundance after kanamycin selection (control-corrected) (log10(CPM+1)); higher = more efficient recombination; extreme values may be limits of the assay; sequences stand for … in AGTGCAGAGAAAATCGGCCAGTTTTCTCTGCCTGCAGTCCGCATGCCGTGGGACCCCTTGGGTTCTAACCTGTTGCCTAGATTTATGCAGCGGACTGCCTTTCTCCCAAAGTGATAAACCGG…AGGTTGGTTTCACT; site = the 11-nt donor
PROPERTY LABEL: recombinant UMI read abundance (log10)
Give bare numbers.

Known recombinant UMI read abundance (log10) results, listed for orientation:
SEQUENCE INPUT: GGTCTACCATGGACCGGTTTTCCCGGTAATCCGTATTTGCA (site GGTCTACCTTG)
recombinant UMI read abundance (log10): 0
--
SEQUENCE INPUT: TTGGGGCCATGGACCGGTTTTCCCGGTAATCCGTATTTGAA (site TTGGGGCCTTT)
recombinant UMI read abundance (log10): 0.00375

-- ask Fill in: recombinant UMI read abundance (log10) of CGGATTTCATGGACCGGTTTTCCCGGTAATCCGTATTTGTT (site CGGAATCCTAA) is ___
-- reply 0

###

METHOD: recombinant barcode read abundance after kanamycin selection (control-corrected) (log10(CPM+1)); higher = more efficient recombination; sequences stand for … in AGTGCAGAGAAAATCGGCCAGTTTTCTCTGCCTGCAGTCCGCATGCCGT…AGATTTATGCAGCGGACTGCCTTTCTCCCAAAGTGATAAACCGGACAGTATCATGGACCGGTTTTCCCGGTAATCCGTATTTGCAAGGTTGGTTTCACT; site = the 11-nt target
Label rule met when recombinant barcode read abundance (log10) is at or above 0.06; anything below gets rule not met.

Example entries and their recorded answers appear below.
SEQUENCE INPUT: AACTATTCTTGGGTTCTAACCTGTTGCCT (site ATGTATTCTAG)
CAT: rule met

SEQUENCE INPUT: AAGATGTCTTGGGTTCTAACCTGTTGCTG (site TAGAAGTCTCA)
CAT: rule not met

SEQUENCE INPUT: CGGAAATCTTGGGTTCTAACCTGTTGCCT (site CGCAAATCTAG)
CAT: rule not met

-- ask Check this sequence for recombinant barcode read abundance (log10) at or above 0.06: TTAGCTTCTTGGGTTCTAACCTGTTGCCT (site TTAGCATCTAG)
-- reply rule met

-- ask Check this sequence for recombinant barcode read abundance (log10) at or above 0.06: AACTATTCTTGGGTTCTAACCTGTTGCCT (site AACTATTCTAG)
-- reply rule met
